Hey, just so you know, these numbers are from patent US20220259593A1.

Catalogue of relative_activity_day5 readings, one per entry.
# System: K562 CRISPRi cells
# Experiment Summary: Perturb-seq pooled growth measurement (sgRNA counts, growth phenotype γ, relative activity)
# Assay type: cell-based, human
# Setup Conditions: γ relative to perfectly matched sgRNA (_00) of the same gene, day 5

{"columns": ["Substance", "relative_activity_day5"],
 "data": [
  ["HSPA9_ −_137911079.23-P1P2_04 (guide GGAGCTGCGCAATGCGGTGG; listed as DNA, chemistry not fully specified)", 0.211],
  ["DUT_ + _48624411.23-P1P2_00 (guide GCGAGCGAGGAGACCACCGG; listed as DNA, chemistry not fully specified)", 1],
  ["HSPA9_ −_137911079.23-P1P2_08 (guide GGAGCTGCTCGATGCGGTGG; listed as DNA, chemistry not fully specified)", 0.3771]
]}
